Below, each entry is listed with its recorded AK.
test system: SH-SY5Y cells; conditions: human, SH-SY5Y cells, 24 h, 1 µM; further: reference of the scale not given here
Experimental endpoint: AK

{"Compound": "O=C(Nc1n[nH]c2nc(-c3nccs3)c(Br)cc12)C1CCCC1", "Assay target": "SH-SY5Y cells", "Measurement": 69.40}
{"Compound": "O=C(Nc1n[nH]c2nc(-c3cccs3)c(Br)cc12)C1CC1", "Assay target": "SH-SY5Y cells", "Measurement": 112.72}
{"Compound": "COc1cccc(C2=C(Nc3ccc(Cl)c(C(=O)O)c3)C(=O)NC2=O)c1 [UNC10225038A]", "Assay target": "SH-SY5Y cells", "Measurement": 67.98}
{"Compound": "O=C(Nc1n[nH]c2nc(-c3ccco3)c(Br)cc12)C1CCN(Cc2ccccc2)C1 (stereo not drawn)", "Assay target": "SH-SY5Y cells", "Measurement": 87.38}
{"Compound": "O=C1NC(=O)C(c2ccc(Cl)cc2)=C1Nc1ccc(O)cc1 [UNC10225090A]", "Assay target": "SH-SY5Y cells", "Measurement": 134.26}
{"Compound": "O=C(Nc1n[nH]c2nc(-c3nccs3)c(Br)cc12)C1CC1", "Assay target": "SH-SY5Y cells", "Measurement": 80.83}
{"Compound": "COc1cccc(-c2ccc3c(NC(=O)C4CC4)n[nH]c3n2)c1", "Assay target": "SH-SY5Y cells", "Measurement": 104.06}
{"Compound": "CN(C1=C(c2ccccc2)C(=O)NC1=O)c1ccccc1 [UNC10225087A]", "Assay target": "SH-SY5Y cells", "Measurement": 157.36}
{"Compound": "O=C(Nc1n[nH]c2cc(-c3ccoc3)ccc12)C1CC1", "Assay target": "SH-SY5Y cells", "Measurement": 109.29}
{"Compound": "CCCC(=O)Nc1n[nH]c2ncccc12", "Assay target": "SH-SY5Y cells", "Measurement": 122.64}
{"Compound": "CCCC(=O)Nc1n[nH]c2ncc(-c3cccc4ccccc34)cc12", "Assay target": "SH-SY5Y cells", "Measurement": 230.70}
{"Compound": "Nc1n[nH]c2nnc(-c3ccccc3)c(-c3ccccc3)c12 [UNC10225185A]", "Assay target": "SH-SY5Y cells", "Measurement": 73.45}
{"Compound": "O=C(Nc1n[nH]c2nc(-c3ccccc3)c(Br)cc12)C1CC1", "Assay target": "SH-SY5Y cells", "Measurement": 115.51}
{"Compound": "Nc1n[nH]c2cnc(-c3ccccc3)cc12", "Assay target": "SH-SY5Y cells", "Measurement": 86.32}
{"Compound": "O=C1NC(=O)C(c2ccccc2Cl)=C1Nc1cccc(Cl)c1 [UNC10225092A]", "Assay target": "SH-SY5Y cells", "Measurement": 96.89}
{"Compound": "O=C(Nc1n[nH]c2cc(-c3ccsc3)ccc12)C1CC1", "Assay target": "SH-SY5Y cells", "Measurement": 126.66}
{"Compound": "CC(=O)Nc1n[nH]c2ncc(-c3ccccc3)cc12", "Assay target": "SH-SY5Y cells", "Measurement": 85.75}
{"Compound": "COc1cccc(C2=C(Nc3cccc(C(=O)O)c3)C(=O)NC2=O)c1 [UNC10225061A]", "Assay target": "SH-SY5Y cells", "Measurement": 91.51}
